- protocol: Drug level in DBA/2 mouse brain at 0.3 mg/kg, iv after 90 mins
- Format: ADME, organism-based
- Set-up: dose 0.3 mg/kg, route intravenous
- applied-conditions: read-out: Drug uptake
measured-attribute: concentration at 1.5 h (nM)
Note: unit nM is implicit; provide only the numeric part.

Give reported concentration at 1.5 h value for Cc1cc(/C(=C/Nc2ccc(Cl)cc2)C(=O)Nc2ccc(Cl)cc2)on1
300

###

Give measured Ratio for each item. Keep answers brief.
- system-under-test: Neuronal acetylcholine receptor subunit alpha-7 (Homo sapiens, UniProt P36544)
- Sequence (P36544 whole entry): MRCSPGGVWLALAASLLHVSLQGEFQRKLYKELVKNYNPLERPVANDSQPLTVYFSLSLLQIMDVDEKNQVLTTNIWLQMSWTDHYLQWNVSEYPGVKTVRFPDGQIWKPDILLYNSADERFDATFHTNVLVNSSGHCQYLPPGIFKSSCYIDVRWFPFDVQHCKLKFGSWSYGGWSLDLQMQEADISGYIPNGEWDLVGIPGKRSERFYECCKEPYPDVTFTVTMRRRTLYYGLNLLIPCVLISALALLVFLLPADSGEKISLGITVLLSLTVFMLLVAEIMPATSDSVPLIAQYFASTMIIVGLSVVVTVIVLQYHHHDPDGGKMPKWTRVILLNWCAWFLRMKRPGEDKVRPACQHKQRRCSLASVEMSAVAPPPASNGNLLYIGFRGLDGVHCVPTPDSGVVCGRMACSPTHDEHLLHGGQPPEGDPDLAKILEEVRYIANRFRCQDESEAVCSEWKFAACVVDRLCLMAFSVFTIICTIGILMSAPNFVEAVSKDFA
- protocol: Activation of human alpha-7 nAChR expressed in Xenopus oocytes assessed as modulation of nicotine-induced current by measuring ratio of I/Imax current by two-electrode voltage-clamp method
- Type: cell-based
- applied-conditions: Oocyte
Lab note: record the figure alone, no unit after it.

Please indicate recorded Ratio of CCOc1ccc(N/C=C(\C(=O)Nc2ccccc2)C(=O)c2ccccc2)cc1 measured with Neuronal acetylcholine receptor subunit alpha-7 (Homo sapiens, UniProt P36544).
0.21

Please indicate recorded Ratio of CCOc1ccc(N/C=C(\C(=O)Nc2ccccc2)c2cc(C)no2)cc1 measured with Neuronal acetylcholine receptor subunit alpha-7 (Homo sapiens, UniProt P36544).
0.72

Please indicate recorded Ratio of CCOC(=O)/C(=C\Nc1ccc(OCC)cc1)C(=O)c1ccccc1Cl measured with Neuronal acetylcholine receptor subunit alpha-7 (Homo sapiens, UniProt P36544).
0.86

Please indicate recorded Ratio of CCOC(=O)/C(=C\Nc1ccc(OCC)cc1)C(=O)c1ccc(F)cc1 measured with Neuronal acetylcholine receptor subunit alpha-7 (Homo sapiens, UniProt P36544).
3.5

Please indicate recorded Ratio of CCOc1ccc(N/C=C(\C(=O)Nc2ccc(Cl)cc2)c2cc(C)no2)cc1 measured with Neuronal acetylcholine receptor subunit alpha-7 (Homo sapiens, UniProt P36544).
0.57

###

- system-under-test: Neuronal acetylcholine receptor subunit alpha-7 (Homo sapiens)
- protocol: Activation of human alpha-7 nAChR expressed in Xenopus oocytes assessed as modulation of nicotine-induced current by two-electrode voltage-clamp method
- Type: cell-based, Oocyte
Give measured pEC50 for each item. Keep answers brief.
Lab note: report pEC50 as minus log10 of the concentration in molar units, number only.

Give reported pEC50 value for CCOC(=O)/C(=C\Nc1ccc(OCC)cc1)C(=O)c1ccccc1Cl
5.74

Give reported pEC50 value for Cc1cc(/C(=C/Nc2ccc(Cl)cc2)C(=O)Nc2ccc(Cl)cc2)on1 [AVL-3288]
6.30

###

- system-under-test: Neuronal acetylcholine receptor subunit alpha-7 (Homo sapiens)
- protocol: Activation of human alpha-7 nAChR expressed in Xenopus oocytes assessed as modulation of choline-induced current by two-electrode voltage-clamp method
- Format: cell-based, Oocyte
measured-attribute: pEC50
Lab note: report pEC50 as minus log10 of the concentration in molar units, number only.

Give reported pEC50 value for Cc1cc(/C(=C/Nc2ccc(Cl)cc2)C(=O)Nc2ccc(Cl)cc2)on1
6.22
